Ref: ChEMBL document CHEMBL1157858

System: Mycobacterium tuberculosis
PROTOCOL_DESCRIPTION: Antitubercular activity against Mycobacterium tuberculosis H37Rv by Alamar blue assay
Assay type: functional, organism-based
For each record, write down the corresponding IC50.

Observe how each entry below is paired with its result.
* C/C(=N\Nc1nc(-c2cccs2)cs1)c1ccncc1 | > 100 µg/mL
* COc1ccc(O)c(-c2csc(N/N=C(\C)c3cccnc3)n2)c1 | > 100 µg/mL

From here, focus on the item given below.
Measured IC50, COc1ccc(O)c(-c2csc(N/N=C(\C)c3ccncc3)n2)c1 : > 100 µg/mL
